- Test system: BJ
- experiment summary: cytotoxicity toward BJ-TERT fibroblasts, dose response, cell-based, RAS-independent, luminescence (AID 1933)
- Format: functional
- applied conditions: Homo sapiens
The source made the active and inactive calls. Rule as the data show it: actives have a measured EC50 and inactives only a lower limit.
Below, each entry is listed with its recorded EC50.

Study these solved cases before continuing.
Cc1ccc(/C=N/NC(=O)c2ccc3ccccc3c2)s1	4.71 µM (inconclusive)
COc1ccc(-[n+]2c(-c3ccccc3)cc(-c3ccc(C)cc3)cc2-c2ccccc2)cc1.[O-][Cl+3]([O-])([O-])[O-]	3.39 µM (active)
CCOc1ccc2nc(NC(=O)c3ccoc3C)sc2c1	2.43 µM (active)

Next compound, EC50 to be filled in.
Lookup: EC50 / BJ / O=C(NCC1CCCO1)c1cc2c([nH]c3ccccc32)c(-c2ccc(F)cc2)n1 (centres undefined)
30.7 µM (active)
